Data origin, for the record: PubChem BioAssay (NCI)

System: DU-145 prostate
Assay: NCI-60 one-dose screen, 48 h (100 = growth as untreated, 0 = no growth, -100 = all killed)
Conditions: 10 µM unless noted
This is part of a sample that, as a whole, favours compounds with a hit. Of some 83,000 tested, about 20% had one in any assay.
REPORTED METRIC: growth (%)
Number in %, nothing else.

Example results:
{"columns": ["COMPOUND", "REPORTED METRIC", "U", "READOUT VALUE"],
 "data": [
  ["CCCCCCOc1ccc(/C=N/NC(N)=S)cc1", "growth", "%", 71.9],
  ["c1ccc2cc(C[n+]3ccn(CCCCCCCn4cc[n+](Cc5ccc6ccccc6c5)c4)c3)ccc2c1", "growth", "%", 49.2],
  ["C[C@]12CC[C@@H]3c4ccc(O)cc4CC[C@H]3[C@@H]1CC[C@@H]2NS(=O)(=O)c1cccc(Br)c1", "growth", "%", 75]
]}

Give the measured growth for "O=C(COC(=O)[C@H](C[Se][Se]C[C@H](NC(=O)c1ccc(Br)cc1F)C(=O)OCC(=O)c1ccc(F)cc1)NC(=O)c1ccc(Br)cc1F)c1ccc(F)cc1"
-100

Give the measured growth for "O=C1c2ccccc2-c2c1nc1ccccc1[n+]2[O-]"
108

Give the measured growth for CCC(CCC(C)C1CCC2C3CC=C4CC(O)CCC4(C)C3CCC12C)C(C)C (centres undefined) (tested in a mixture with another compound)
115
